// provenance: PubChem BioAssay AID1996

Measured solubility kinetic, listed per entry.
condition: buffer; pH 7.4; 200.0 µM
Write it as a number; the unit µg/mL goes unstated.

Examples with answers:
| compound | endpoint | reading |
| --- | --- | --- |
| CC(=O)Oc1ccc(C(=O)NCc2ccco2)cc1 | solubility kinetic | 37.6 |
| Cc1cccc(C(=O)OCC(=O)N2CC(=O)Nc3ccccc32)c1C | solubility kinetic | 4.2 |
| CCOc1ccc(NC(=S)N2c3ccccc3CC2C)cc1 (stereo unspecified) | solubility kinetic | 4.4 |

Recorded solubility kinetic (compound "NC(=O)c1ccc(N2CCC(C(N)=O)CC2)c([N+](=O)[O-])c1" ): 38.4

Recorded solubility kinetic (compound "COc1ccc(Nc2nc(N3CCOCC3)nc(N3CCOCC3)n2)cc1" ): 1.4

Recorded solubility kinetic (compound "Cn1c(=O)c2c(ncn2CC(=O)Nc2cc(S(=O)(=O)N3CCCCC3)ccc2Cl)n(C)c1=O" ): 10.5

----------
Measured solubility kinetic, listed per entry.
condition: buffer; pH 7.4; 200.0 µM
Write it as a number; the unit µg/mL goes unstated.

Examples with answers:
| compound | reading |
| --- | --- |
| CCCn1c(C(O)c2cc(OC)c(OC)c(OC)c2)nc2ccccc21 (stereo not drawn) | 49.3 |
| CCCC(=O)OCC(=O)NCc1ccc(Cl)cc1 | 35.8 |
| CC1CCCCC1NC(=O)COC(=O)COc1ccccc1Cl (stereo not drawn) | 17.8 |

Recorded solubility kinetic (compound O=C(NC(Cc1ccccc1)C(=O)O)c1cccnc1Cl (stereo not drawn) ): 35

Recorded solubility kinetic (compound "NC(=O)COc1ccccc1" ): 21

Recorded solubility kinetic (compound O=C(NC1CCS(=O)(=O)C1)c1cccnc1 (stereo not drawn) ): 26.1

Recorded solubility kinetic (compound "N#CCC(=O)Nc1ccc(C(=O)Nc2cccc(S(N)(=O)=O)c2)cc1" ): 46.2

Recorded solubility kinetic (compound "Cc1csc(NC(=O)c2ccc3ccccc3n2)n1" ): 4

Recorded solubility kinetic (compound "Cc1cc2oc(=O)sc2cc1NS(=O)(=O)c1ccccc1" ): 42.8

----------
Measured solubility kinetic, listed per entry.
condition: buffer; pH 7.4; 200.0 µM
Write it as a number; the unit µg/mL goes unstated.

| molecule | reading |
| --- | --- |
| CN(Cc1ccccc1)C(=O)c1ccco1 | 30.3 |

Recorded solubility kinetic (molecule "CN(CC(=O)Nc1ccccc1)CC(=O)Nc1ccc(F)cc1" ): 30.7

Recorded solubility kinetic (molecule "O/N=C/c1cc(Br)cs1" ): 16.9

Recorded solubility kinetic (molecule CC1CCC2(CC1)NC(=O)N(CC(=O)Nc1ccc3c(c1)OCO3)C2=O (stereo unspecified) ): 15.6

----------
condition: buffer; pH 7.4; 200.0 µM
Measured solubility kinetic, listed per entry.
Write it as a number; the unit µg/mL goes unstated.

| compound | reading |
| --- | --- |
| COc1cc2c(cc1OC)CC(C(=O)NCc1ccccc1)NC2 (stereo not given) | 33.2 |
| O=C(/C=C/c1ccc(S(=O)(=O)N2CCOCC2)cc1)Nc1cc(F)ccc1F | 5.5 |

Recorded solubility kinetic (compound "O=C(O)CCN1CCN(S(=O)(=O)c2ccc3ccccc3c2)CC1" ): 44.5

Recorded solubility kinetic (compound "C#CCN(C)CCCOc1ccc(Cl)cc1Cl.Cl" ): 8.7

Recorded solubility kinetic (compound "COc1ccccc1NC(=O)COc1ccc2c(c1)OCO2" ): 2.5
